Below is a list of entries, each paired with its recorded protein stability index value.
B1: NCK2 (parent)
chain: YVERKNSLKKGSLVKNLKDTLGLG

- Variants of: B1
- test.method.notes: protein stability index of a GFP-peptide fusion (GPS, HEK-293T) (PSI 1-6); higher = more stable;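 note: lentivirally expressed fusions sorted by FACS into six bins by GFP to DsRed ratio, PSI derived from sequencing read proportions per bin multiplied by bin number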
- condition.parameters: c terminus: a fixed tail appended
quantity.measured: protein stability index

variant.string	quantity.measured	value.observed
S12E	protein stability index	2.4
E3W	protein stability index	1.96
K15C	protein stability index	2.12
N6E	protein stability index	2.85
V14E	protein stability index	2.16
N6R	protein stability index	2.25
K15Q	protein stability index	2
L17S	protein stability index	2.41
R4E	protein stability index	2.42
N16A	protein stability index	2.33
L17I	protein stability index	2.43
